Where do these numbers come from? They come from PubChem BioAssay (NCI).

Consider the following compounds and their measured TGI readings.
Tested on: SF-539 CNS
assay_remarks: NCI tumour cell line growth inhibition, 48 h

Previously resolved entries follow.
>>> observed_measurement("O=C(O)c1cc(-c2ccccc2O)nc2ccccc12")
"> 100 µM"
>>> observed_measurement("COc1cc(OC)c(OC)cc1/C=C1\\C=Cc2ccccc21")
"35.8 µM"
>>> observed_measurement("CCCCCC(=O)OCC(=O)O[C@@H]1C[C@]2(C(C)C)O[C@@]1(C)[C@@H]1CC[C@@H](C)[C@H]1[C@@H]2OC(=O)/C=C/c1ccccc1")
"> 76.2 µM"
>>> observed_measurement("c1ccc2c[n+](CCCCCCCCCC[n+]3ccc4ccccc4c3)ccc2c1")
"> 10 µM"
>>> observed_measurement("NC(=O)c1csc(CCCCCCc2nc(C(N)=O)cs2)n1")
"> 100 µM"

Task: Quick one: TGI for "Cc1[nH]c(=O)nc(CC(O)(c2ccccc2)c2ccccc2)c1-c1ccccc1" ?
Result: > 100 µM

###

Test system: SN12C renal
assay_remarks: NCI tumour cell line growth inhibition, 48 h
Consider the following compounds and their measured TGI readings.

Task: Quick one: TGI for "CCOC(=O)c1nc2ccc(Cl)cc2c2c1CCO2" ?
Result: > 100 µM

Task: Quick one: TGI for "O=C(/C=C/c1c(O)ccc2ccccc12)c1cccc2ccccc12" ?
Result: > 100 µM

Task: Quick one: TGI for COC1=CC(C2c3cc4c(cc3[C@@H](Nc3ccc([N+](=O)[O-])cc3)C3COC(=O)[C@H]23)OCO4)=CC(=O)C1=O (stereo partly specified) ?
Result: 7.59 µM

Task: Quick one: TGI for "COc1ccc(-c2onc(-c3c(C)cc(C)cc3C)c2C2=NCCCN2)cc1" ?
Result: > 100 µM

Task: Quick one: TGI for "COC(=O)[C@H]1C=C[C@@H](C)n2c(=O)c3ccccc3c(=O)n21" ?
Result: > 100 µM

Task: Quick one: TGI for "C#CCOc1ccc2ncnc(Nc3ccc(NC(=O)CCl)cc3)c2c1" ?
Result: 36.9 µM

Task: Quick one: TGI for "C=C1C(=O)O[C@H]2[C@H]1[C@H](OC(=O)/C(C)=C\C)C[C@]1(CO1)[C@@H]1[C@H](OC(C)=O)C=C(C)[C@]21O" ?
Result: 30.2 µM

Task: Quick one: TGI for O=C1C(Cl)C(c2ccc(Cl)cc2)N1n1cnc2ccccc2c1=O (stereo unspecified) ?
Result: > 100 µM

Task: Quick one: TGI for "CCCCSC1=N/C(=C\c2ccco2)C(=O)N1" ?
Result: > 100 µM

Task: Quick one: TGI for CC(=O)NCC1(c2ccccc2)CCN(CC2COc3ccccc3O2)CC1 (stereo unspecified) ?
Result: > 100 µM

Task: Quick one: TGI for COC(=O)C(/C(=N/N)C(=O)Nc1cc(Cl)c(Cl)cc1Cl)c1nc2ccc(Cl)cc2[nH]c1=O (stereo unspecified) ?
Result: > 100 µM

###

Consider the following compounds and their measured TGI readings.
Test system: MDA-MB-435
assay_remarks: NCI tumour cell line growth inhibition, 48 h
Where a SMILES comes first, the peptide text is derived from it. [ ]: non-standard residue; d: D form. The star is where a group is joined. ξ: configuration not given here. ξPhe(4-NO2) = NC(Cc1ccc([N+](=O)[O-])cc1)C(=O)O; Boc = CC(C)(C)OC(=O)*; OBn = c1ccc(CO*)cc1

Previously resolved entries follow.
>>> observed_measurement("Cn1cnc([N+](=O)[O-])c1SCC(=O)O")
"> 100 µM"
>>> observed_measurement("CCCCCC(=O)OCC(=O)[C@H]1[C@H](C)C[C@H]2[C@@H]3C[C@H](F)C4=C/C(=N/OC(=O)c5cccc6c(=O)c7ccccc7[nH]c56)C=C[C@]4(C)[C@H]3[C@@H](O)C[C@@]21C")
"55.3 µM"
>>> observed_measurement("CC1=CC2(O)OC3(CC2=C(C)C)C(C)CCC13 (configuration not stated)")
"> 100 µM"
>>> observed_measurement("CC(=O)OCC1OC(n2c3c(c(-c4ccc(Cl)cc4)c(C#N)c2=S)C(=O)CC(C)(C)C3)C(OC(C)=O)C(OC(C)=O)C1OC(C)=O (configuration not stated)")
"> 69.6 µM"
>>> observed_measurement("CC1=NN2C(=O)CC(=O)N=C2S1")
"> 100 µM"
>>> observed_measurement("CN(C)c1ncnc2c1ncn2C1C=CC(COS(N)(=O)=O)C1 (configuration not stated)")
"> 100 µM"
>>> observed_measurement("COc1ccc(C2CC(=O)Oc3ccccc3O2)cc1 (configuration not stated)")
"> 100 µM"
>>> observed_measurement("O=C(CSCC(=O)N/N=C/c1cccc(OCc2ccccc2)c1)N/N=C/c1cccc(OCc2ccccc2)c1")
"> 100 µM"

Task: Quick one: TGI for "COc1ccc(Nc2nc(N)c(C(=O)c3ccc(OC)cc3)s2)cc1" ?
Result: 0.208 µM

Task: Quick one: TGI for C[C@H]1CCC/C=C/[C@@H]2C[C@H](O)C[C@H]2[C@H](O)[C@@H](S(=O)CCN)CC(=O)O1 (some centres not stated) ?
Result: > 92.8 µM

Task: Quick one: TGI for CCCC(=O)NC(c1ccc2c(c1)OCO2)c1ccc2cccnc2c1O (configuration not stated) ?
Result: > 100 µM

Task: Quick one: TGI for "COc1ccc2c(c1OC)-c1c(c3ccc([N+](=O)[O-])cc3c(=O)n1CCCN=[N+]=[N-])C2=O" ?
Result: > 100 µM

Task: Quick one: TGI for "COC(C/C(=C/CO[Si](C(C)C)(C(C)C)C(C)C)C(=O)Nc1ccccc1I)OC" ?
Result: > 100 µM

Task: Quick one: TGI for "CCOC(=O)c1nnsc1NC(=O)Nc1ccc(Cl)cc1" ?
Result: > 100 µM

Task: Quick one: TGI for "COc1ccc(OC)c(NC(=O)C(=O)Nn2c(=S)[nH]c3ccccc3c2=O)c1" ?
Result: > 100 µM

Task: Quick one: TGI for CN1CC2=C(NC(=S)NC2c2ccc(Cl)cc2)/C(=C/c2ccc(Cl)cc2)C1 (configuration not stated) ?
Result: 30.1 µM

Task: Quick one: TGI for CC(C)(C)OC(=O)NC(Cc1ccc([N+](=O)[O-])cc1)C(=O)NCC(=O)OCc1ccccc1 (configuration not stated) (Boc-[ξPhe(4-NO2)]-Gly-OBn) ?
Result: 33.2 µM

###

System: CCRF-CEM leukemia
assay_remarks: NCI tumour cell line growth inhibition, 48 h
Consider the following compounds and their measured TGI readings.
Output spec: scalar in µM, unitless text.

Previously resolved entries follow.
>>> observed_measurement("CC(=O)n1nc(-c2nc3ccccc3nc2Cl)cc1Cl")
7.73
>>> observed_measurement("COc1ccc2c(c1OC)-c1c(c3ccc([N+](=O)[O-])cc3c(=O)n1CCCN=[N+]=[N-])C2=O")
17.1
>>> observed_measurement("CN1CC2=C(NC(=S)NC2c2ccc(Cl)cc2)/C(=C/c2ccc(Cl)cc2)C1 (stereo not given)")
30.9
>>> observed_measurement("CN(C)CCNC(=O)c1cccc2nc3c4ccccc4c4ccccc4c3nc12")
3.03
>>> observed_measurement("Cc1ccccc1-n1c(/C=C\\c2ccccn2)nc2ccccc2c1=O")
30.1

Task: So what TGI did "C=C1C(=O)O[C@H]2[C@H]1[C@H](OC(=O)/C(C)=C\C)C[C@]1(CO1)[C@@H]1[C@H](OC(C)=O)C=C(C)[C@]21O" get with CCRF-CEM leukemia?
Result: 15.6

###

Consider the following compounds and their measured TGI readings.
Tested on: SW-620 colon
assay_remarks: NCI tumour cell line growth inhibition, 48 h

>>> observed_measurement("COc1ccc2c(c1OC)-c1c(c3ccc([N+](=O)[O-])cc3c(=O)n1CCCN=[N+]=[N-])C2=O")
"> 100 µM"
>>> observed_measurement("COc1cc(C)cc2c1C(=O)C(Br)=CC2=O")
"3.62 µM"
>>> observed_measurement("O=C(NCCCNC(=O)OCc1ccc2c(Br)cc(Br)c(O)c2n1)OCc1ccc2c(Br)cc(Br)c(O)c2n1")
"> 100 µM"

Task: Quick one: TGI for "COc1cccc(-c2cccc(SC)n2)n1" ?
Result: > 100 µM

Task: Quick one: TGI for "O=C1/C(=C/c2ccc([N+](=O)[O-])s2)Oc2ccccc21" ?
Result: 0.725 µM

Task: Quick one: TGI for "NC(=O)c1csc(CCCCCCc2nc(C(N)=O)cs2)n1" ?
Result: > 60.7 µM
